protocolSummary: in vitro
Parameters: species or system A549, Huh7, HeLa, U87MG; MTT colorimetric cell growth / viability assay
cond: human, hacat cells; read-out: Doxorubicin IC50 (μM), normal cells
quantity: CC50 at 72 h (µM)
# output: bare number, implied unit µM

Record COc1cccc2c1C(=O)c1c(O)c3c(c(O)c1C2=O)C[C@@](O)(C(=O)CO)C[C@@H]3O[C@H]1C[C@H](N)[C@H](O)[C@H](C)O1 [Doxorubicin] , field CC50 at 72 h: 0.681

* * *

System: HeLa
protocolSummary: cells
Design: species or system A549, Huh7, U87MG, HaCaT; MTT colorimetric cell growth / viability assay
cond: Homo sapiens, HeLa, 72 h; read-out: NOC-IBR1 IC50
quantity: IC50

Input `COc1cc2c(c(O)c1O)C(=O)c1c(coc1C)C2` . Output IC50: 61.1 µM
